# EXPERIMENTAL_TARGET: Phosphatidylinositol 4,5-bisphosphate 3-kinase catalytic subunit alpha isoform (Homo sapiens, UniProt P42336, H1047R)
# Sequence (P42336 whole entry H1047R, canonical isoform): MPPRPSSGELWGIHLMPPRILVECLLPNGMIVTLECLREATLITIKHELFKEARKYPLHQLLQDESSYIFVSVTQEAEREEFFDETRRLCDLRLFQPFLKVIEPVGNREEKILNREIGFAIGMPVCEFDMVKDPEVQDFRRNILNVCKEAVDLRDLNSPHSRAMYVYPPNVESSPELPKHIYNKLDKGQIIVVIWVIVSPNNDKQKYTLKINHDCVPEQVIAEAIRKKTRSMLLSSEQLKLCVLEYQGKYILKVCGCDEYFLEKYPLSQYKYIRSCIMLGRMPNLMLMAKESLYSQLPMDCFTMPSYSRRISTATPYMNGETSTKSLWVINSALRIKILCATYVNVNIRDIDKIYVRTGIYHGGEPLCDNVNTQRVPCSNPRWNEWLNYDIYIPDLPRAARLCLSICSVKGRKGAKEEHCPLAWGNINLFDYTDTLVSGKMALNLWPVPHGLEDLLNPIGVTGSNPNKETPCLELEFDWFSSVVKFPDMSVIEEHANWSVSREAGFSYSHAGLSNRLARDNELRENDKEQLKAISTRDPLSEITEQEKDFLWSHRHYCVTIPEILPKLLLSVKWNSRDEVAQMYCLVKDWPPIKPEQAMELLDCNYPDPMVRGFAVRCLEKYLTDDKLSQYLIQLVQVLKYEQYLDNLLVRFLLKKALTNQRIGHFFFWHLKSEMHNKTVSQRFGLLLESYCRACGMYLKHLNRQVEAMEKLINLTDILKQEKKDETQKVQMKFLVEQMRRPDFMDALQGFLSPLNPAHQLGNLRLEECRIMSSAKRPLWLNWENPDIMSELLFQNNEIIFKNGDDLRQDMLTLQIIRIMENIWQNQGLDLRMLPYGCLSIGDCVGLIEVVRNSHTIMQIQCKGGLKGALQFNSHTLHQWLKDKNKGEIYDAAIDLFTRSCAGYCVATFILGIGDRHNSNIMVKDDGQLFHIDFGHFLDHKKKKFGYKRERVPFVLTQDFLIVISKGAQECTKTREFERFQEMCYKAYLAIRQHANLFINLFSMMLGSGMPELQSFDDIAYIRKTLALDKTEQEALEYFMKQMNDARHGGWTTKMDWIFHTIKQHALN
# ASSAY_REMARKS: Inhibition of PI3Kalpha H1047R mutant (unknown origin)
Form field: IC50 (one value per entry).

Previously resolved entries follow.
Entry under test: COC(=O)c1cc(CNc2ccc(S(=O)(=O)Nc3nnc(C)s3)cc2)cc(-c2ccc(OC)nc2)c1 . Its IC50 was 0.03 µM

Entry under test: COc1ccc(-c2cc(CNc3ccc(S(=O)(=O)N(C)c4nnc(C)s4)cc3)cc(C(=O)NCCc3ccccc3F)c2)cn1 . Its IC50 was > 10 µM

Further cases:
Entry under test: COc1ccc(-c2cc(CNc3ccc(S(=O)(=O)Nc4nnc(C)s4)cc3)cc(C(=O)NCCC(C)C)c2)cn1 . Its IC50 was 0.011 µM

###

# EXPERIMENTAL_TARGET: Phosphatidylinositol 4,5-bisphosphate 3-kinase catalytic subunit beta isoform (Homo sapiens)
# Sequence (P42338 whole entry, canonical isoform): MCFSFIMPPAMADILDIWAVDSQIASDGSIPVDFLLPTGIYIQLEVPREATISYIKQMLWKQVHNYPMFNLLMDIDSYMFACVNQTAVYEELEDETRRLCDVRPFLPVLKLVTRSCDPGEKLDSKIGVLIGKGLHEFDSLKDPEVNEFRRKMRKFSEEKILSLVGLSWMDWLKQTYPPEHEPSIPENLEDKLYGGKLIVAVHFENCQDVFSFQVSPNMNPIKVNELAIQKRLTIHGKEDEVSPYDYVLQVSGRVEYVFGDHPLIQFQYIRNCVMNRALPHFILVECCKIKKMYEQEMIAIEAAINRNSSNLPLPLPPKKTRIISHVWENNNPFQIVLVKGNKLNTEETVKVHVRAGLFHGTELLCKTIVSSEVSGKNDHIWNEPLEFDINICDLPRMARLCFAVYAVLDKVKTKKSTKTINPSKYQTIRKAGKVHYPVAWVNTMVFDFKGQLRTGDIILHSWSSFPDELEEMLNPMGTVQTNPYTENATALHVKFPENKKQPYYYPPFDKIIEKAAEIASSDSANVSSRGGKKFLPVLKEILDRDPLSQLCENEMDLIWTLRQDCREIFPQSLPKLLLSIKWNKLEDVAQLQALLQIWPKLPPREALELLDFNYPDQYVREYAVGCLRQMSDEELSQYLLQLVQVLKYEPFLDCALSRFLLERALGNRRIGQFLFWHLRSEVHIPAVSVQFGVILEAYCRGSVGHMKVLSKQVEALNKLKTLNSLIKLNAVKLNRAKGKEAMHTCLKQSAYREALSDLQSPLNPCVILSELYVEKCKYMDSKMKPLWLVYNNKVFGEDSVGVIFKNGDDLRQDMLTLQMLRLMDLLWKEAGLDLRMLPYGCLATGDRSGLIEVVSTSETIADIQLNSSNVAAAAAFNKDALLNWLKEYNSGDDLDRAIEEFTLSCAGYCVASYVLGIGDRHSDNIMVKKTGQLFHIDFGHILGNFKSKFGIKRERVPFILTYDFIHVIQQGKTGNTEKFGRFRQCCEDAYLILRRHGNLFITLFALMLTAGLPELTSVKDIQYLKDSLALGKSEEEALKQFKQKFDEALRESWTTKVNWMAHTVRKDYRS
# ASSAY_REMARKS: Inhibition of PI3Kbeta (unknown origin)
Form field: IC50 (one value per entry).
// return numeric value only (unit: nM, not printed)

Entry under test: Cc1nnc(NS(=O)(=O)c2ccc(NCc3cc(C(=O)O)cc(-c4ccc5c(c4)OCO5)c3)cc2)s1 . Its IC50 was 501

Further cases:
Entry under test: COc1ccc(-c2cc(CNc3ccc(S(=O)(=O)Nc4nnc(C)s4)cc3)cc(C(=O)O)c2)cn1 . Its IC50 was 149

Entry under test: COc1ccc(-c2cc(CNc3ccc(S(=O)(=O)Nc4nnc(C)s4)cc3)cc(C(=O)NC(CO)CO)c2)cn1 . Its IC50 was 790

###

# EXPERIMENTAL_TARGET: Phosphatidylinositol 4,5-bisphosphate 3-kinase catalytic subunit gamma isoform (Homo sapiens)
# Sequence (P48736 whole entry, canonical isoform): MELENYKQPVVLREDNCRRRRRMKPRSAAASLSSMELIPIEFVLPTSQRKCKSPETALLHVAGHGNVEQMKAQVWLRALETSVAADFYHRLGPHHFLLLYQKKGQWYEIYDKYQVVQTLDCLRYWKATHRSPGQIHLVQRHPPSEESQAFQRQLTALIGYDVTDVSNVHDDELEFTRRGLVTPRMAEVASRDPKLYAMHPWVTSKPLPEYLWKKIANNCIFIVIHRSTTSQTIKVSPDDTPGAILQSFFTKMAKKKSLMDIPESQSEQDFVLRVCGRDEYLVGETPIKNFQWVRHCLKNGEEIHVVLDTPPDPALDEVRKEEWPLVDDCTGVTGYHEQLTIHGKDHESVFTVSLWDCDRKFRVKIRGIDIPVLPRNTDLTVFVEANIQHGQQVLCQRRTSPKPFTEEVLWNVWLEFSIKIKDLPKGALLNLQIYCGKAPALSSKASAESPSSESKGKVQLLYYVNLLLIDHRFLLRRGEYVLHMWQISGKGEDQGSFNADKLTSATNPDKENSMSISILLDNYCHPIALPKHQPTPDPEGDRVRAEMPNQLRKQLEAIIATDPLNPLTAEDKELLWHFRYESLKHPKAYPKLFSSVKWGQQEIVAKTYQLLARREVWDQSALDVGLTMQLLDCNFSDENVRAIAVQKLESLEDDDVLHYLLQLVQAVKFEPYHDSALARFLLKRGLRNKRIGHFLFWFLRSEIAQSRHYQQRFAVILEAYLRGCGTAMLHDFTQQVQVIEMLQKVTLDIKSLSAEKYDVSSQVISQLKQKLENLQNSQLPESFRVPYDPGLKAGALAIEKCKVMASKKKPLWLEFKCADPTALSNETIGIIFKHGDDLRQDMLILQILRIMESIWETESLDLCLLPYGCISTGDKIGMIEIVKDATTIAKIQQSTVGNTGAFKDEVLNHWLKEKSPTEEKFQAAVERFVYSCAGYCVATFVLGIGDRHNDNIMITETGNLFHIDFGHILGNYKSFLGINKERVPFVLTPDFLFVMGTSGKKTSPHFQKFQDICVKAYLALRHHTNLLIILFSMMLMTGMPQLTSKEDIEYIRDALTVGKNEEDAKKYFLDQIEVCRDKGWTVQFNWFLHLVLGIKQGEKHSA
# ASSAY_REMARKS: Inhibition of PI3Kgamma (unknown origin)
ENDPOINT: IC50 (nM)
// return numeric value only (unit: nM, not printed)

Previously resolved entries follow.
Entry under test: Cc1nnc(NS(=O)(=O)c2ccc(NCc3cc(C(=O)O)cc(-c4ccc5c(c4)OCO5)c3)cc2)s1 . Its IC50 was 4

Entry under test: COc1ccc(-c2cc(CNc3ccc(S(=O)(=O)Nc4nnc(C)s4)cc3)cc(C(=O)NCCC(C)C)c2)cn1 . Its IC50 was 10

API: the following record is the query input.
Entry under test: COc1ccc(-c2cccc(CNc3ccc(S(=O)(=O)Nc4nnc(C)s4)cc3)c2)cn1 . Its IC50 was 52

###

# EXPERIMENTAL_TARGET: Phosphatidylinositol 4,5-bisphosphate 3-kinase catalytic subunit alpha isoform (Homo sapiens)
# ASSAY_REMARKS: Inhibition of wild type his-tagged PI3Kalpha (unknown origin)
ENDPOINT: pIC50
Just so you know, pIC50 here is -log10 of the concentration in molar units; reply with that number alone.

Previously resolved entries follow.
Entry under test: Cc1nnc(NS(=O)(=O)c2ccc(NCc3cc(C(=O)O)cc(-c4ccc5c(c4)OCO5)c3)cc2)s1 . Its pIC50 was 7.40

Entry under test: COc1ccc(-c2cc(CNc3ccc(S(=O)(=O)Nc4nnc(C)s4)cc3)cc(C(=O)NCCC(C)C)c2)cn1 . Its pIC50 was 8.02

Entry under test: COC(=O)c1cc(CNc2ccc(S(=O)(=O)Nc3nnc(C)s3)cc2)cc(-c2ccc(OC)nc2)c1 . Its pIC50 was 7.34

Entry under test: COc1ccc(-c2cc(CNc3ccc(S(=O)(=O)N(C)c4nnc(C)s4)cc3)cc(C(=O)NCCc3ccccc3F)c2)cn1 . Its pIC50 was 5.70

Entry under test: COc1ccc(-c2cc(CNc3ccc(S(=O)(=O)Nc4nnc(C)s4)cc3)cc(C(=O)O)c2)cn1 . Its pIC50 was 8.00

Further cases:
Entry under test: Cc1nnc(NS(=O)(=O)c2ccc(NCc3cc(C(=O)O)cc(-c4ccc5c(c4)OCCO5)c3)cc2)s1 . Its pIC50 was 7.90

Entry under test: COc1ccc(-c2cccc(CNc3ccc(S(=O)(=O)Nc4nnc(C)s4)cc3)c2)cn1 . Its pIC50 was 6.99

Entry under test: COc1ccc(-c2cc(CNc3ccc(S(=O)(=O)Nc4nnc(C)s4)cc3)cc(C(=O)NCCc3ccccc3F)c2)cn1 . Its pIC50 was 8.19

Entry under test: COc1ccc(-c2cc(CNc3ccc(S(=O)(=O)Nc4nnc(C)s4)cc3)cc(C(=O)NC(CO)CO)c2)cn1 . Its pIC50 was 7.80
